Target: T1, Rb^P E533K (human, UniProt P06400 380-788, E533K)
T1 construct: also called variant 22
T1 sequence (looked up): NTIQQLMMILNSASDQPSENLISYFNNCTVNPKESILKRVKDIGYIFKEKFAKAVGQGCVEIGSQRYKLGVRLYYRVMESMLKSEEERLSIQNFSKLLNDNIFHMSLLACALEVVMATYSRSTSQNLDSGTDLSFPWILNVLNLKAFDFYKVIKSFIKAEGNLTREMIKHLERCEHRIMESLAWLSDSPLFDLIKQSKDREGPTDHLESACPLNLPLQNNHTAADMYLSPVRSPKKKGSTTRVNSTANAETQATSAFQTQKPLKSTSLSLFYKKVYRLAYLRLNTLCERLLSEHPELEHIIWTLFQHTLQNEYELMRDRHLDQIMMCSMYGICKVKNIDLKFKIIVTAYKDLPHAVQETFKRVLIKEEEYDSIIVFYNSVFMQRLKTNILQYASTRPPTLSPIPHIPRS
Test: fluorescence polarisation; 25 °C; unlabeled Rb^P titrated against 1.5 nM TMR-E2F1^TD or 7.5 nM TMR-E7^LxCxE; 25 mM Tris pH 8.0, 200 mM NaCl, 1 mM DTT, 0.1% Tween-20; 2 min incubation; quadratic fit; apparent Kd for the variants, Kd for WT
Details: both partners purified
No end group written: not given here. TMR = tetramethyl rhodamine dye
measurement-type: pKd
Numbers only, as −log10 of the molar value.

- binder: "{TMR}-GEGIRDLFDCDFGDLTPLD (also called E2F^TD; source: synthetic peptide, bought: GenScript) [TMR-E2F1^TD, peptide of the E2F1 transactivation domain]"
  recorded-result: 6.09

query: Give a short answer stating reported pKd for DLYCYEQLN (also: TMR label, position not given here, source: synthetic peptide, bought: GenScript) [TMR-E7^LxCxE, LxCxE peptide of the E7 oncoprotein from HPV] .
result: 8.22
